Source of measurements: patent US9605029B2

Examples of sequences with documented pKd follow.
Test system: Fc region prepared by digesting human monoclonal antibody IgG with papain (Homo sapiens)
Construct: The Fc region to be immobilized to a sensor chip was prepared, by digesting human monoclonal antibody IgG with papain; made in house; host or cells: papain digest of human monoclonal IgG (Pierce Fab Preparation Kit), then MabSelect SuRe, HiTrap DEAE and Superdex 200
Measurement protocol: Surface plasmon resonance, polypeptides on immobilized Fc region prepared from human monoclonal IgG (Example 2, 3) and 4); Example 8)
Type: binding
Conditions used: variant polypeptide with alanine substitution; read-out: Equilibrium dissociation constant of p17 variant KD
Ends that are not written are not given here.
Conceptually, pKd converts a concentration in mol/L into minus its log10.

GPGISAFSPGRGVYDPETGTWYDAAWHLGELVWATYYDPETGTWEPDAQRMLGQ [SEQ ID NO: 176]    6.70
GPGISAFSPGRGVYDPETGTWYDAAWHLGELVWATYYDPETGTWEPDWQAMLGQ [SEQ ID NO: 177]    8.11
GPGISAFSPGRGVYDPETGTWYDAAWHLGELVWATYYDPETGTWEADWQRMLGQ [SEQ ID NO: 174]    8.25

I have this sequence here, GPGISAFSPGRGVYDPETGTWYDAAWHLGELVWATYYDPETGTWEPAWQRMLGQ [SEQ ID NO: 175] , and I need its recorded pKd.
7.35

====

Examples of substances with documented O.D. 415 follow.
Tested on: Fc region (Jackson ImmunoResearch Laboratories, Inc.) labeled with horseradish peroxidase (HRP)
Measurement protocol: ELISA of recombinant phages displaying polypeptides (Example 2, 6)
Type: binding, human
Conditions used: recombinant T7 phage displaying the polypeptide; absorbance at 415 nm; control 0.11
Answer as a number with no unit attached.

I have this substance here, 42 (DAAWHLGELVWATYYDPETGTWAPDWNRMRDFNRSFREV; IgG binding peptide, pep29) [compound 42] , and I need its recorded O.D. 415.
0.273

I have this substance here, 34 (DAAWHLGELVWATYYDPETGTWEPDWSKMRPQ; IgG binding peptide, pep1) [compound 34] , and I need its recorded O.D. 415.
0.281

I have this substance here, 54 (DAAWHLGELVWATYYDPETGTWQPDWEIMRPF; IgG binding peptide, pep30) [compound 54] , and I need its recorded O.D. 415.
0.258

I have this substance here, 39 (DAAWHLGELVWATYYDPETGTWTPDWNAMSQR; IgG binding peptide, pep6) [compound 39] , and I need its recorded O.D. 415.
0.273

I have this substance here, 52 (DAAWHLGELVWATYYDPETGTWRPDWARMEPM; IgG binding peptide, pep28) [compound 52] , and I need its recorded O.D. 415.
0.25

I have this substance here, 44 (DAAWHLGELVWATYYDPETGTWIPDWTRMQTW; IgG binding peptide, pep16) [compound 44] , and I need its recorded O.D. 415.
0.243

I have this substance here, 49 (DAAWHLGELVWATYYDPETGTWVPDWDTMHAAINRSFREV; Artificial Sequence, pep22; IgG binding peptide) [compound 49] , and I need its recorded O.D. 415.
0.346

I have this substance here, 51 (DAAWHLGELVWATYYDPETGTWLPDWNLMGQH; IgG binding peptide, pep26) [compound 51] , and I need its recorded O.D. 415.
0.265

I have this substance here, 40 (DAAWHLGELVWATYYDPETGTWQPDWKRMTSR; IgG binding peptide, pep10) [compound 40] , and I need its recorded O.D. 415.
0.251
